- assay-details: Plasma concentration in Sprague-Dawley rat at 2 mg/kg, iv after 0.33 hrs
- Format: ADME, organism-based
- Parameters: dose 2 mg/kg, route intravenous
property-label: concentration at 0.33 h (ng/mL)
Output spec: scalar in ng/mL, unitless text.

Please give the measured concentration at 0.33 h for this compound: `COc1ccc2c(O[C@@H]3C[C@H]4C(=O)N[C@]5(C(=O)NS(=O)(=O)C6(C)CC6)C[C@H]5/C=C\CCCCCC(=O)N4C3)cc(-c3nc(C(C)C)cs3)nc2c1Cl` 708

====

- assay-details: Tmax in Sprague-Dawley rat at 10 mg/kg, po
- Format: ADME, organism-based
- Parameters: dose 10 mg/kg, route oral
- test-context: in vivo
property-label: Tmax (min)
The answer is to be given in min; state only the numeric part.

// lookup Tmax for `COc1ccc2c(O[C@@H]3C[C@H]4C(=O)N[C@]5(C(=O)NS(=O)(=O)C6(C)CC6)C[C@H]5/C=C\CCCCCC(=O)N4C3)cc(-c3nc(C(C)C)cs3)nc2c1Cl` 45
